- Tested on: SK-OV-3 ovarian
- experiment.description: NCI-60 one-dose screen, 48 h (100 = growth as untreated, 0 = no growth, -100 = all killed)
- assay.context: 10 µM unless noted
The panel holds about 83,000 compounds, 20% with a hit somewhere; the sample as a whole holds those more often.

| compound | growth / % |
| --- | --- |
| COC[C@@H]1C[C@@]2(C)[C@@H](CC[C@@H]3[C@@H]2CC[C@@]2(C)[C@H]3CC[C@]2(C)O)CC1=O | 98.7 |
| CCn1nccc1NC(=O)C(=O)c1cn(Cc2ccc(F)cc2)c2cccc(OC)c12 | 100 |
| O=C1C=C(N2C3C4CCC(C4)C32)C(=O)C=C1c1ccccc1 (centres undefined) | 88.9 |
| COc1cc(C=Nc2cccc(Br)c2)ccc1N(CCCl)CCCl | 71.3 |
| COc1ccc2c(c1)c(-c1nc(-c3c[nH]c4ncccc34)cs1)cn2CCN1CCOCC1 | 67.9 |
| Cc1c(O)c(CN(CCCl)CCCl)cc(CN(CCCl)CCCl)c1O | 102 |
| CC(=O)O[C@H](C[C@H](C(C)C)N(C)C(=O)[C@@H](NC(=O)[C@H]1CCCCN1C)C(C)C)c1nc(C(=O)N[C@@H](Cc2ccccc2)C[C@H](C)C(=O)O)c(CCOCc2ccccc2)s1 | 44.6 |
| O=C(CCCCCCC(=O)Nc1ccc(N(CCCl)CCCl)cc1)NO | 26.3 |
| CCC(O)(CN)c1ccccc1 (centres undefined) | 98.4 |

Value source: PubChem BioAssay (NCI)
